Test system: P388 leukemia ip, CD2F1 mice, survival T/C
protocol-notes: NCI In Vivo Anticancer Drug Screen. Data for tumor model P388 Leukemia (intraperitoneal) in CD2F1 (CDF1) mice
test-parameters: endpoint: median survival time; dose: 6.25 mg/kg/injection; schedule: Q01DX009 (ip); vehicle: saline with Tween-80; higher = longer survival
Toxic doses and inconclusive results are not listed.
readout-name: T/C

Worked cases, answers included:
Req: Request the reported T/C associated with O=[N+]([O-])c1cc(F)ccc1O
Resp: 95 % of control

Req: Which T/C value belongs to COC(=O)c1ccc(OP(=O)(N(C)C)N(C)C)cc1 ?
Resp: 96 % of control

Req: What value of T/C has been reported for the following molecule? CN(C)c1ccc(CN(Cc2ccccc2)CC(O)c2ccccc2)cc1 (stereo not given)
Resp: 97 % of control

Req: What does the record list as T/C for O=C1CSC(=S)N1/N=C/c1ccc(Cl)c(Cl)c1 ?
Resp: 120 % of control

New cases:
Req: Which measured T/C value corresponds to COc1ccc(/C=N/NC(=O)CNC(=O)c2ccc(Cl)c(Cl)c2)cc1 ?
Resp: 108 % of control

====

Below, each entry is listed alongside its reported T/C.
Tested on: P388 leukemia ip, CD2F1 mice, survival T/C
protocol-notes: NCI In Vivo Anticancer Drug Screen. Data for tumor model P388 Leukemia (intraperitoneal) in CD2F1 (CDF1) mice
test-parameters: endpoint: median survival time; dose: 200.0 mg/kg/injection; schedule: Q01DX001 (ip); vehicle: saline with Tween-80; higher = longer survival
Inconclusive results and toxic doses are left out.

Req: # T/C lookup, item CCOC(=O)Nc1cc2c(c(N)n1)N=C(c1ccccc1)CN2C
Resp: 106 % of control

---
Req: Reported T/C for C=CCNC(=S)NNC(=O)CNC(c1ccc(OC)cc1)C(CC)c1ccc(OC)cc1 (configuration not stated) : what is it?
Resp: 110 % of control

====

Tested on: P388 leukemia ip, CD2F1 mice, survival T/C
protocol-notes: NCI In Vivo Anticancer Drug Screen. Data for tumor model P388 Leukemia (intraperitoneal) in CD2F1 (CDF1) mice
test-parameters: endpoint: median survival time; dose: 400.0 mg/kg/injection; schedule: Q01DX001 (ip); vehicle: saline with Tween-80; higher = longer survival
Toxic doses and inconclusive results are not listed.
readout-name: T/C

Req: Need T/C, item O=C(O)c1cccc(Cl)c1 (tested in a mixture with another compound)
Resp: 95 % of control

Req: Return reported T/C; argument: Cc1cccc(-c2cc3ccccc3c(Cl)n2)n1
Resp: 91 % of control

====

Tested on: P388 leukemia ip, CD2F1 mice, survival T/C
protocol-notes: NCI In Vivo Anticancer Drug Screen. Data for tumor model P388 Leukemia (intraperitoneal) in CD2F1 (CDF1) mice
test-parameters: endpoint: median survival time; dose: 50.0 mg/kg/injection; schedule: Q01DX005 (ip); vehicle: saline
Toxic doses and inconclusive results are not listed. Rule for the calls: active = survival T/C of 150% or more; inactive = T/C below 125% in these data.
// one of active, inactive, no free text

Req: Each molecule tested received a call. Report the one for CC(=O)[OH+]c1c(Br)cc(Br)cc1C(=O)[O-].CC(=O)[OH+]c1c(Br)cc(Br)cc1C(=O)[O-].[Cu+2] .
Resp: inactive

Req: // outcome(item) with item = O=C(CN1CCNCC1)N1CCOCC1
Resp: inactive

Req: For CC1(C(=O)O)CCC2(C)CCC3(C)C(=CC(=O)C4C5(C)CCC(OC6OC(C(=O)O)C(O)C(O)C6OC6OC(C(=O)O)C(O)C(O)C6O)C(C)(C)C5CCC43C)C2C1 (stereo unspecified) , which call appears in the assay record?
Resp: inactive

Req: Short answer needed: outcome of this test for CCCCCCCCCCCCNC(=O)[C@@]1(O)[C@H](O)C2(CC)C=CCN3CCC4(c5cc([C@@]6(C(=O)OC)CC7CN(CCc8c6[nH]c6ccccc86)C[C@](O)(CC)C7)c(OC)cc5N(C)[C@H]41)C32 (stereo partly specified) ?
Resp: active

Req: Which outcome was assigned to CC(=O)NC(CC(C)C(C)=O)C(=O)O (stereo unspecified) in this test?
Resp: inactive

New cases:
Req: Short answer needed: outcome of this test for CN1[C@@H]2CC[C@H]1CC(O)(c1ccccc1)C2 (stereo partly specified) ?
Resp: inactive

Req: What did the test return for CC(=O)CC1C=CCC(CC(O)c2ccccc2)N1C (stereo unspecified) ?
Resp: inactive

Req: Assay outcome for COc1ccc2c(c1)C13CCCCC1C(C2)N(C)CC3 (stereo unspecified) : what was it?
Resp: inactive

Req: Status in this test for C=C(C)CCN1C(=O)NC(C)(C)C1O (stereo unspecified) ?
Resp: inactive

Req: Outcome logged for NN1C(=O)C2C3C=CC(O3)C2C1=O (stereo unspecified) in this assay:
Resp: inactive

Req: Called result for CC1(O)CCC(O)CC1CC[N+](C)(C)[O-] (stereo unspecified)
Resp: inactive

====

Test system: P388 leukemia ip, CD2F1 mice, survival T/C
protocol-notes: NCI In Vivo Anticancer Drug Screen. Data for tumor model P388 Leukemia (intraperitoneal) in CD2F1 (CDF1) mice
test-parameters: endpoint: median survival time; dose: 50.0 mg/kg/injection; schedule: Q01DX009 (ip); vehicle: saline; higher = longer survival
Inconclusive results and toxic doses are left out.
Recorded measurements of T/C, one per entry

Req: Field request: T/C | item: Cc1cc(C)nc(/N=C/c2ccccc2O)c1
Resp: 98 % of control

Others:
Req: Which value of T/C has been reported for O=C(O)C1=C/C(=C(/c2ccccc2)c2cc(C(=O)O)c(O)c3ccccc23)c2ccccc2C1=O in the records?
Resp: 99 % of control

Req: For the compound shown here, CC(C)N1CCN(c2ccncc2S(=O)(=O)N2CCCC2)CC1 , give the reported T/C.
Resp: 87 % of control

Req: May I ask what T/C has been recorded for CN(C)CCC#N ?
Resp: 117 % of control

Req: Quick check: T/C of O=C(O)CN(CC(=O)O)Cc1cc(=O)[nH]c(=O)[nH]1 ?
Resp: 91 % of control

Req: Quick one: T/C of CCC(C)n1c(=O)cc(C)[nH]c1=O (stereo unspecified) ?
Resp: 101 % of control

====

Quick reference: T/C of the listed items.
System: P388 leukemia ip, CD2F1 mice, survival T/C
protocol-notes: NCI In Vivo Anticancer Drug Screen. Data for tumor model P388 Leukemia (intraperitoneal) in CD2F1 (CDF1) mice
test-parameters: endpoint: median survival time; dose: 5.0 mg/kg/injection; schedule: Q01DX009 (ip); vehicle: saline with Tween-80; higher = longer survival
Inconclusive results and toxic doses are left out.

Some solved entries appear below for comparison.
Req: Consider the compound shown here: CC1=CC(=O)C(c2ccc(O)cc2O)=CC1=O What is its recorded T/C?
Resp: 95 % of control

Req: Reported T/C for O=C(Nc1ccc(NC2=NCCN2)cc1)c1cccc(C(=O)Nc2ccc(NC3=NCCN3)cc2)c1 : what is it?
Resp: 109 % of control

Req: // returns reported T/C for input CCC1(C)CC(=O)NC(=O)C1
Resp: 95 % of control

***
Req: Fill blank: measured T/C of the compound COc1cc(OC)c(C/C=C/c2ccccc2)cc1O is ____.
Resp: 100 % of control

Req: I would be grateful if you could share the reported T/C for CC(=O)c1ccc2oc(C(C)=O)cc2c1 .
Resp: 96 % of control

====

Recorded measurements of T/C, one per entry
Test system: P388 leukemia ip, CD2F1 mice, survival T/C
protocol-notes: NCI In Vivo Anticancer Drug Screen. Data for tumor model P388 Leukemia (intraperitoneal) in CD2F1 (CDF1) mice
test-parameters: endpoint: median survival time; dose: 100.0 mg/kg/injection; schedule: Q01DX009 (ip); vehicle: distilled water + Tween-80; higher = longer survival
Toxic doses and inconclusive results are not listed.

Req: Sample CCN=NNc1ccc(C(C)=O)cc1 — what was its T/C?
Resp: 104 % of control

Req: Looking for the measured T/C of CC12CCC(S)CC1=CCC1C2CCC2(C)/C(=N/NC(N)=S)CCC12 (stereo unspecified) , can you help?
Resp: 105 % of control

====

# maps each entry to its T/C
System: P388 leukemia ip, CD2F1 mice, survival T/C
protocol-notes: NCI In Vivo Anticancer Drug Screen. Data for tumor model P388 Leukemia (intraperitoneal) in CD2F1 (CDF1) mice
test-parameters: endpoint: median survival time; dose: 400.0 mg/kg/injection; schedule: Q04DX002 (ip); vehicle: saline with Tween-80; higher = longer survival
Toxic doses and inconclusive results are not listed.

Examples from the recorded data:
Req: What value of T/C has been reported for the following compound? O=S1(=O)c2ccccc2N(c2ccccc2)c2nnc(-c3ccccc3)n21
Resp: 92 % of control

Req: Return reported T/C; argument: O=C(OC1CC2CCC1C2)c1cc([N+](=O)[O-])cc([N+](=O)[O-])c1 (stereo not given)
Resp: 100 % of control

Req: Can you look up the measured T/C of CC(C)C12OC1CC13OC1C1OC1C1OC132 (stereo not given) for me?
Resp: 94 % of control

Req: What T/C value was documented for this compound, CCc1ccc2c(c1)C(O)(C#Cc1ccccc1)c1cc(CC)ccc1C2(O)C#Cc1ccccc1 (stereo not given) ?
Resp: 93 % of control

Further cases:
Req: // query T/C value for entry COc1c(-c2ccccc2)cc(-c2ccccc2)c(-c2ccccc2)c1-c1ccccc1
Resp: 89 % of control
